# Test system: human ether-à-go-go-related gene (hERG) potassium channel (human, UniProt Q12809)
# Sequence (Q12809 whole entry, looked up): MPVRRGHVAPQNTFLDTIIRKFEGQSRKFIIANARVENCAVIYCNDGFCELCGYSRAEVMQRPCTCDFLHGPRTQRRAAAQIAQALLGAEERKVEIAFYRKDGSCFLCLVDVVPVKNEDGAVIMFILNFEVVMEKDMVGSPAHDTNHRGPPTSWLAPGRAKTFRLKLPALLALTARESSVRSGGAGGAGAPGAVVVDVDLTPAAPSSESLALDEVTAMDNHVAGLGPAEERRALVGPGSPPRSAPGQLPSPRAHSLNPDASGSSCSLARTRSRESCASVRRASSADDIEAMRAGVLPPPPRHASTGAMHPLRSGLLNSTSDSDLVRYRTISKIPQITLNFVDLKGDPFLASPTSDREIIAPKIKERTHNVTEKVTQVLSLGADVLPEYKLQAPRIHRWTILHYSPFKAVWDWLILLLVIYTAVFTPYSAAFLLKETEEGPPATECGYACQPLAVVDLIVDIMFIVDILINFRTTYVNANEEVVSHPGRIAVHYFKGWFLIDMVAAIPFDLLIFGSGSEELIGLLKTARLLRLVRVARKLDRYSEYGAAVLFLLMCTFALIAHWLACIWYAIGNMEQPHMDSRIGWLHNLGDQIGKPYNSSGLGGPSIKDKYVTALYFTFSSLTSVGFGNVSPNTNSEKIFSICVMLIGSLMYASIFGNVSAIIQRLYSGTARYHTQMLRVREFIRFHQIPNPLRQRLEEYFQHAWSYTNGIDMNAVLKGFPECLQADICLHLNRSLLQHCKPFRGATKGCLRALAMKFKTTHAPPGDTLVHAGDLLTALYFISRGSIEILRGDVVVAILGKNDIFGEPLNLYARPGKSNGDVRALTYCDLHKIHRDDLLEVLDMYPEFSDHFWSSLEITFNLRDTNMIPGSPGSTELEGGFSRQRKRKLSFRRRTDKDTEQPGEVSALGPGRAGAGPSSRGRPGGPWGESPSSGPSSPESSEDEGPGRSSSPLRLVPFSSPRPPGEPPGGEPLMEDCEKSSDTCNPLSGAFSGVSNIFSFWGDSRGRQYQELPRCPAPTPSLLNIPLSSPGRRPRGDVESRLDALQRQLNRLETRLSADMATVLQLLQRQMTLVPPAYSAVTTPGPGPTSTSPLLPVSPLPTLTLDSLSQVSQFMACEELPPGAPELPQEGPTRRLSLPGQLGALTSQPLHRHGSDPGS
# Assay method text: primary screen, population patch clamp on CHO cells stably expressing hERG; higher = less effect of the substance
Screen size: about 310,000 compounds; about 14,000 (4.5%) showed an effect of 50% or more. The effect is printed as a negative number. The sample as a whole holds a higher share of strong results than the screen did.
Readout name: hERG current change (%, negative = inhibition) at 10uM (%)
Express the result in % but write the number alone.

Solved entries:
[
  {
    "Compound": "CCC(CC)C(=O)NC12CC3CC(CC(C3)C1)C2",
    "Reported result": 5.15
  },
  {
    "Compound": "O=C(C(c1ccccc1)c1ccccc1)N1CCN(CCN2C(=O)c3cccc4cccc(c34)C2=O)CC1",
    "Reported result": -4.74
  },
  {
    "Compound": "CO/N=C/c1ccc(Oc2ccc(C)cc2)c([N+](=O)[O-])c1",
    "Reported result": 12.1
  }
]

Lab note: next compound to report on.
Please provide the recorded hERG current change (%, negative = inhibition) at 10uM for CCc1nnc(NC(=O)C2CCN(C(=O)c3ccco3)CC2)s1 , tested on human ether-à-go-go-related gene (hERG) potassium channel (human, UniProt Q12809).
-0.31

----------
# Test system: human ether-à-go-go-related gene (hERG) potassium channel (human, UniProt Q12809)
# Assay method text: primary screen, population patch clamp on CHO cells stably expressing hERG; higher = less effect of the substance
Hit rate of the full screen: of about 310,000 compounds, about 14,000 (4.5%) showed an effect of 50% or more. Effects have a minus sign here. For the sample, strong results were picked, then their nearest neighbours and some compounds at random.
Label rule, in plain words: hERG current change (%, negative = inhibition) at 10uM of 10% and up is rule met, under 10% is rule not met.

Example entries begin here.
[
  {
    "Molecule": "COCC1CCCN(Cc2cn(Cc3ccccc3)nc2-c2cc3ccccc3o2)C1 (centres unmarked)",
    "Label": "rule not met"
  },
  {
    "Molecule": "CCCc1nnc(NC(=O)CCC(=O)NCc2ccccc2OC)s1",
    "Label": "rule met"
  },
  {
    "Molecule": "CCN(CC)CCCNC(=O)c1cn(CC)c2ccc(S(=O)(=O)N(C)C3CCCCC3)cc2c1=O",
    "Label": "rule not met"
  },
  {
    "Molecule": "COCC1CCCN(Cc2nc(Cc3ccccc3)no2)C1 (centres unmarked)",
    "Label": "rule met"
  }
]

Now let's try a different one.
Does the reported hERG current change (%, negative = inhibition) at 10uM for CC1=Nc2ccccc2/C1=C/c1sc(=N)n(-c2nccs2)c1O fall at or above the 10% mark?
rule met

----------
Quick reference for hERG current change (%, negative = inhibition) at 10uM among some compounds
# Test system: human ether-à-go-go-related gene (hERG) potassium channel (human, UniProt Q12809);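 also: peak tail current of the secondary pulse compared with the same well before compound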
# Assay method text: primary screen, population patch clamp on CHO cells stably expressing hERG; higher = less effect of the substance
# Experimental: Briefly, Chinese hamster ovary (CHO) cells stably expressing the hERG channel were dislodged from tissue culture flasks and dispensed into PPC plates. […] During the recording, background leak currents were estimated by a 100 ms step to -80 mV from an initial holding potential of -70 mV and subtracted from the subsequent current measurement. The campaign was conducted in two phases using slight differences in recording protocol. […]
Screen size: about 310,000 compounds; about 14,000 (4.5%) showed an effect of 50% or more. Effects have a minus sign here. Shown is part of a subset that was picked to be rich in strong results.
Supply the numeric figure in %, leaving out any unit text.

Reference set (4 entries):
[
  {
    "Compound": "CCOC(=O)C1CCN(C(=O)Cc2ccc(C)cc2)CC1",
    "Test system": "human ether-à-go-go-related gene (hERG) potassium channel (human, UniProt Q12809)",
    "Units symbol": "%",
    "Reported result": -1.62
  },
  {
    "Compound": "CCOC(=O)C1CCN(C(=O)c2ccc(OC)cc2OC)CC1",
    "Test system": "human ether-à-go-go-related gene (hERG) potassium channel (human, UniProt Q12809)",
    "Units symbol": "%",
    "Reported result": -25.5
  },
  {
    "Compound": "CCOC(=O)C1CCN(c2cc(C)nc3cc(-c4cccc(F)c4)nn23)CC1",
    "Test system": "human ether-à-go-go-related gene (hERG) potassium channel (human, UniProt Q12809)",
    "Units symbol": "%",
    "Reported result": -5.74
  },
  {
    "Compound": "CCOc1ccc(S(=O)(=O)N2CCC(C(=O)NCCc3ccccc3)CC2)cc1",
    "Test system": "human ether-à-go-go-related gene (hERG) potassium channel (human, UniProt Q12809)",
    "Units symbol": "%",
    "Reported result": 29.1
  }
]

We next turn to a different compound, shown below.
# hERG current change (%, negative = inhibition) at 10uM lookup, item CCN(CC(=O)NCc1ccc(Cl)cc1)C(=O)Cc1ccccc1[N+](=O)[O-]
-63.4

----------
# Test system: human ether-à-go-go-related gene (hERG) potassium channel (human, UniProt Q12809);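 also: peak tail current of the secondary pulse compared with the same well before compound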
# Assay method text: primary screen, population patch clamp on CHO cells stably expressing hERG; higher = less effect of the substance
Screen size: about 310,000 compounds; about 14,000 (4.5%) showed an effect of 50% or more. The effect is printed as a negative number. What follows is part of a selection rich in strong results, with near analogues and random picks from the rest.
Readout name: hERG current change (%, negative = inhibition) at 10uM (%)
Note: unit % is implicit; provide only the numeric part.

For orientation, consider the following solved cases.
[
  {
    "Compound": "COc1ccc(N2CCN(C(=O)C(=O)c3c(C)n(C)c4ccccc34)CC2)cc1",
    "Reported result": 10.4
  },
  {
    "Compound": "O=C(Nc1ccc(-c2cn3ccccc3n2)cc1)c1ccco1",
    "Reported result": -11.4
  },
  {
    "Compound": "Cc1cccc(-c2cc(C(=O)NCc3ccccn3)c3ccccc3n2)c1",
    "Reported result": -18
  },
  {
    "Compound": "Cc1ccc(NS(=O)(=O)c2ccc(-c3cnc(C4CC4)o3)cc2)c(C)c1",
    "Reported result": 2.08
  },
  {
    "Compound": "COC(=O)NC1(C(=O)O)CCCC1",
    "Reported result": -0.802
  }
]

Given the compound COc1cccc(C2CC(=O)C3=C(C2)Nc2ccccc2N(C(=O)CCC(=O)O)C3c2ccc(F)cc2)c1 (centres unmarked) , what is its reported hERG current change (%, negative = inhibition) at 10uM?
5.1

Now consider CCC(C)(C)NC(=O)Cn1c(-c2ccc(C)cc2)noc1=O .
13.5

Another compound to look at: CC(=O)c1sc(NC(=O)c2cc(=O)c3ccccc3o2)nc1C
10.1

Also check Cc1cc(C(F)(F)F)c(C#N)c(SCC(=O)NC2CC2)n1
-4.11

COc1ccccc1C(=O)C1CCCN(Cc2cnc(C)s2)C1 (centres unmarked) , same question.
-8.13

# iterate: Cc1ccccc1NS(=O)(=O)c1ccc(OCCNS(C)(=O)=O)cc1
-4.01

----------
hERG current change (%, negative = inhibition) at 10uM by entry:
# Test system: human ether-à-go-go-related gene (hERG) potassium channel (human, UniProt Q12809);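 also: peak tail current of the secondary pulse compared with the same well before compound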
# Assay method text: primary screen, population patch clamp on CHO cells stably expressing hERG; higher = less effect of the substance
Among all 310,000 compounds or so, about 14,000 (4.5%) showed an effect of 50% or more. The effect is printed as a negative number. Only a selection was taken, and strong results are over-represented in it overall.
Return type: number; implicit unit %.

Request: hERG current change (%, negative = inhibition) at 10uM, test system human ether-à-go-go-related gene (hERG) potassium channel (human, UniProt Q12809), entry CNC(CC(C)C)C(=O)NC1C(=O)NC(CC(N)=O)C(=O)NC2C(=O)NC3C(=O)NC(C(=O)NC(C(=O)O)c4cc(O)cc(O)c4-c4cc3ccc4O)C(O)c3ccc(c(Cl)c3)Oc3cc2cc(c3OC2OC(CO)C(O)C(O)C2OC2C[C@](C)(N)C(O)C(C)O2)Oc2ccc(cc2Cl)C1O (stereo partly shown);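 also: peak tail current of the secondary pulse compared with the same well before compound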
9.61

Repeat for the following compound: O=C(Cn1nc(CNc2ccc(Cl)cc2)[n+]2c1CCCCC2)c1ccc(Br)cc1.[Br-]
-61.6

Subsequent entry: O=C(Cn1nc(CNc2ccc(Cl)cc2)[n+]2c1CCCCC2)c1ccc(Cl)cc1.[Br-]
-8.17

Also need Cc1cc(C(=O)N2CCN(c3ncccn3)CC2)cs1 , thanks.
-15.6

Proceed to Cc1ccc(C(C)C)c(OCC(=O)Nc2ccc(Cl)cn2)c1
-8.82

Likewise for CN(C)c1ccc(NC(=O)c2ccc(COc3cccc(Cl)c3)o2)cc1 ?
0.95

Same read-out for CC(C)(C)c1nc2scc(-c3ccc(Br)cc3)c2c(=O)o1 ?
7.26

Please answer likewise for Cc1ccc(C(=O)N/C(=C\c2cccnc2)c2nc3ccccc3[nH]2)cc1
-19.7

# iterate: COc1cccc(OC)c1OCCCN1CCOCC1
4.22

Also, O=C(NCc1ccccc1)C1CC(=O)N(C2CCCCC2)C1 (stereo not shown) please.
17.8

Follow-up entry: Cc1ccc(C(C)C)c(OCc2nn(CC(=O)c3ccc(Cl)cc3)c3[n+]2CCCCC3)c1.[Br-]
-73.3

Next: S=c1[nH]nc(-c2cccc(Br)c2)o1
19.6

Subsequent entry: COc1ccc(NC(=O)CCCN2C(=O)C(c3ccccc3)Oc3cccnc32)cc1OC (stereo not shown)
1.23
